# assay.notes: inhibitors of TNFa-induced NFkB p65 translocation, primary screen, imaging, HUVEC, MLSMR starter and 10KST1 sets (AID 438);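 also: compound added about 3h40 before a 20 min TNFalpha stimulation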
# run.conditions: HUVEC TNFa-induced p65 nuclear translocation; measured here: nuclei count (cytotoxicity indicator), at 2.08 µM
observable: cell count
Simply state the number, no unit and no words.

Some entries whose results are on file:
{"columns": ["compound", "cell count"],
 "data": [
  ["CC1(C)Cc2c(sc3c2c(=N)n(Cc2ccco2)c(=O)n3Cc2ccccc2)CO1", 790],
  ["COC(=O)c1ccccc1NC(=O)c1noc2c1CCC2", 251],
  ["CNC(=O)CSc1nnc(-c2cc(C)cc(C)c2)o1", 669],
  ["CC(C)Sc1nc2c(c(=O)n1-c1ccc(F)cc1)SCC2", 384],
  ["COc1cccc(CN=CC2=C(O)CC(C)(C)CC2=O)c1OC", 326]
]}

cell count for CC(C)(C)c1ccc(-c2nnc(SCCC#N)n2C2CCCC2)cc1 is 410

cell count for Cc1cccc(OCc2nc(C#N)c(NCCN(C)C)o2)c1 is 628

cell count for COc1ccc(NC(=O)CSc2nnc(-c3ccncc3)n2CC2CCCO2)c(OC)c1 (stereo not given) is 587

cell count for Cc1cc(=O)oc2cc(OCC(=O)OCc3nnc(-c4ccccc4)o3)ccc12 is 527

###

Recorded inhibition of aggregation, one value per entry.
# assay.notes: reduction of polyQ htt aggregates in cells – imaging, exon1htt(103Q)mCFP cells, high-content imaging, primary screen (AID 483);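 also: compound exposure lasted 3 days before fixation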
# run.conditions: exon1htt(103Q)mCFP cell line, aggregate imaging, at 2 µM; stronger effect = higher value
Active and inactive are the calls of the source.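 The calls were made as follows: active = visual image review flags a hit and inhibition of aggregation exceeds 20%; inconclusive = visual hit but inhibition at or below 20%; inactive = no hit on visual image review.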

{"columns": ["compound", "inhibition of aggregation"],
 "data": [
  ["O=S(=O)(c1ccc(F)cc1)N1CCC(N2CCCC2)CC1", "5.9% (inactive)"],
  ["CCCc1ccccc1OCCNC(C)=O", "18.6% (inactive)"],
  ["CCSc1nc2ccccc2n1CCC(=O)O", "1.9% (inactive)"]
]}

inhibition of aggregation for CC(=O)N1CCC2(CC1)CC(=O)c1cc(OCC(=O)NCc3ccc(C)cc3)ccc1O2 is 2.5% (inactive)

inhibition of aggregation for Cc1cc(C)cc(N2C(=O)C3C4C=CC(C4)C3C2=O)c1 (configuration not stated) is -4.9% (inactive)

inhibition of aggregation for CCOc1ccc(CCNc2nc3c(c(=O)n(C)c(=O)n3C)n2CC)cc1OCC is -0.6% (inactive)

inhibition of aggregation for COCC(=O)n1nc(NCc2ccc(OC)cc2)nc1NCc1ccc(OC)cc1 is -19.7% (inactive)

inhibition of aggregation for Nc1nonc1-n1nnc(C(=O)c2ccccc2)c1-c1ccccc1 is 1.5% (inactive)

inhibition of aggregation for Cc1cccc(-n2ncc3c(NCc4cccs4)ncnc32)c1 is 0.1% (inactive)

inhibition of aggregation for O=C(Nc1ccc(N2C(=O)C3C4C=CC(C4)C3C2=O)cc1)Nc1cccnc1 (configuration not stated) is -7.7% (inactive)

inhibition of aggregation for O=C(CSc1nnnn1C1CCCC1)Nc1cccc(NC(=O)c2ccco2)c1 is 21.9% (inactive)

inhibition of aggregation for Cc1c[nH]c2cccc(OCC(O)CNC(C)(C)C)c12 (configuration not stated) is 15.3% (inactive)

inhibition of aggregation for CCC(C(=O)Nc1ncccn1)(C(F)(F)F)C(F)(F)F is 25.4% (inactive)

inhibition of aggregation for CCCn1c(=O)c(C(=O)NCc2ccccn2)c(O)c2ccccc21 is -20.9% (inactive)

inhibition of aggregation for COc1ccc(NC(=O)CC2CCCCC2)cc1OC is -4.8% (inactive)
